tested-target: T1, cTnI quality control product recombinant protein (human, UniProt P19429 1-210, limits assumed)
T1 construct: the assay paragraphs only say cTnI; also called cardiac troponin I; cTnI antigen
T1 sequence (P19429 whole entry): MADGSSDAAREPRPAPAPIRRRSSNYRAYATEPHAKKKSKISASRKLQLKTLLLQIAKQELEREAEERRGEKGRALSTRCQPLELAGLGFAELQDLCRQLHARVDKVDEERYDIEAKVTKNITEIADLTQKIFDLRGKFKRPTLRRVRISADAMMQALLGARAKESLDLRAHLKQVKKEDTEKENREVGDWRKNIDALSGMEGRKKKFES
measurement-description: AMC biosensor, antibody on sensor
reported-property: kon (M⁻¹ s⁻¹)
The response must be a number in M⁻¹ s⁻¹ with no trailing unit.

{"binder": "WT 1-3 (antibody, V domains shown) VH: QVQLQQSGTELAKPGASVKFSCKASDYTFTTYWMYWIKQRPGQGLEWIGYINPSTGHTEYNQKFKDKATLTADKSSSTAYMQLNSLTSEDSAVYYCARKYFGPFAMDYWGQGTSVTVSS VL: EIFLTQSPAIMSASPGEKVTMTCSASTSVSYAHWYQQKSGTSPKRWIYDSSKLASGIPVRFSGSGSGTSYSLTISSMEAEDAATYYCQNWSSNPYTFGGGTKLEIKR", "reported-property": "kon", "val": 34400}
{"binder": "Mutation 1-17 (antibody, V domains shown) VH: QVQLQQSGTELAKPGASVKFSCKASGYTFSSYWMYWIKQRPGQGLEWIGYINPSTGHTDYNQRFKDKATLTADKSSSTAYMQLNSLTSEDSAVYYCARKYWGPFGMDYWGQGTSVTVSS VL: EIFLTQSPAIMSASPGEKVTMTCSASSSVSYVHWYQQKSGTSPKRWIYDTSKIASGIPVRFSGSGSGTSYSLTISSMEAEDAATYYCQQWSSQPYTFGGGTKLEIKR", "reported-property": "kon", "val": 33500}

Query :: Tell me its kon given Mutation 1-26 (antibody, V domains shown) VH: QVQLQQSGTELAKPGASVKFSCKASGYTFTTYWMYWIKQRPGQGLEWIGYLNPSTGHTDYNQKFKDKATLTADKSSSTAYMQLNSLTSEDSAVYYCARRYWGPFGMDYWGQGTSVTVSS VL: EIFLTQSPAIMSASPGEKVTMTCSASSTVSYVHWYQQKSGTSPKRWLYDTSKLASGIPVRFSGSGSGTSYSLTISSMEAEDAATYYCQQWSSNPYTFGGGTKLEIKR as the entry.
Result :: 15900
